The measurements presented in this section are drawn from the supplement of paper PMC6555819.

System: PPARg:RXRa 270nM:90nM, anti-RXR (NR concentration 270 nM, RXRa partner concentration 90 nM)
assay_name: PBM binding z-score (relative to random genomic background probes); higher = stronger binding; sequences stand for … in GC…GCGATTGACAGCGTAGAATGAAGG
value_type: PBM binding z-score

Below, 3 sequences whose answers are already recorded.
{"columns": ["residue_string", "value_type", "test_value"],
 "data": [
  ["TCGAGTAGGTTAGTCGGGGCATTCTGCCAACATA", "PBM binding z-score", 0.587],
  ["TGAATAAGGTTATAAGATCAGGGAACGTTGCAAA", "PBM binding z-score", 1.57],
  ["TCTTGTAGATCAACAGGAGGATAAGAAAGATCGA", "PBM binding z-score", 0.997]
]}

For this sequence ( TCTTGTAGATCAGCAGGTTAACAAAGCTGGCCAA ), measured PBM binding z-score is 1.77

The recorded PBM binding z-score for CAGCCTAGGTCAGGGCCAGAATAGGAGGAACGTT is 0.725

====

Tested on: PPARg homodimer (NR concentration 180 nM)
assay_name: PBM binding z-score (relative to random genomic background probes); higher = stronger binding; sequences stand for … in GC…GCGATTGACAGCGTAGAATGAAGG
A collection of sequences and their measured PBM binding z-score
No unit in the answer, please; the number alone is enough.

Some sequences with known PBM binding z-score results, for comparison:
{"columns": ["residue_string", "PBM binding z-score"],
 "data": [
  ["CCGACTCGGGCATAAGGTTACCATAAGCCAGCCC", 0.278],
  ["TCTTGTAGATCAGTAGGTTAAGAAAGCTGGCCAA", 0.822],
  ["TCATATAGGTAAATGCTAGGTGAAAATCCGATCT", 1.06],
  ["ACAGACAGGTGATGAATGTAACTCAGGCTATCAT", 0.379]
]}

The reported value for TCATATAGGTAAACAAGTGAAAGTCCGTAAGTTA in terms of PBM binding z-score is 0.811

Given item TCTTGTAGATCAATAGATGTTAAGAAAGTGCGCT , the value recorded as its PBM binding z-score is -0.501

Lookup result for ACTTACGGGTCAACGAGGTTATAACACGCGTATA ; measured PBM binding z-score: 4.28

Looking up CAGCTTAGGTCAGGGCCAGTATAGGAGGAACGTT , I found its PBM binding z-score recorded as 1.34

// recorded PBM binding z-score for CCTAGTTTGTCAGGAGGTCACACACCGGATATGA : 4.45

Notebook: TAGACTAGGTCATGGGCCAGTATACCACGCGAAC , PBM binding z-score read as 1.38

PBM binding z-score in this record for AGTCAAAGTTCACTAGGAAACGTAAGATTCAGCT : 2.18

PBM binding z-score recorded for this sequence, GATACAGGGTCAGCTATAGGCCAGAGTATGGAAA , is 1.68

// ATATTTAGGTTAAGGGTCATTCAGGTTGGTTCGC : PBM binding z-score value = 5.4

Kindly note the recorded PBM binding z-score for CCGATTAGTTGACCATAAGGGCAACCGAAGCTCG , which is 0.907

Data point: AATACAGGGTCACTAGGCCAGAGTTGGTACGAAT ; PBM binding z-score = 2.23

Lookup result for CAAACTAGGTCAAGAGGACAAAGTCCGCTTCCCG ; measured PBM binding z-score: 1.84

====

Each entry below carries its recorded PBM binding z-score.
System: PPARg DBDmut:RXRa IVT, anti-PPARg (DBD mutation: PPARg1 K132A/R137A, NR concentration 270 nM, RXRa partner concentration 90 nM)
assay_name: PBM binding z-score (relative to random genomic background probes); higher = stronger binding; sequences stand for … in GC…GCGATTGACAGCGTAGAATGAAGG
Quick one: just the number, no unit, thanks!

{"columns": ["residue_string", "test_value"],
 "data": [
  ["GATACAGGGTCAGATAGAGGCCAGAGTATGGAAA", 1.35],
  ["CTCGAAAGGTTGTGCTCAGGTGAGTATACCAAAC", -0.154]
]}

sequence GCGACTGAGGCAAAGCAGGTTACCATAAGGTTGG , PBM binding z-score observed: -1.27

Please fill in: PBM binding z-score reported for TCTGCTAGGTCAGTTGGTCAGCTAACGAGCTGCC = -0.303

Value of measured PBM binding z-score for the entry CGTCCAGGGTCAGCAGGTCAGTGAAAGCGACGTG : -0.496

Briefly, PBM binding z-score measured for TCATATAGGTAAATTCTAGGTGAAAGTCCGATCT : 1.26

According to the records, this sequence TCATATAGGTAAACAGGTGATAGTCCGTAAGTTA displays PBM binding z-score of 2.2

====

Overview of recorded PBM binding z-score for various sequences
System: RARg homodimer (NR concentration 270 nM)
assay_name: PBM binding z-score (relative to random genomic background probes); higher = stronger binding; sequences stand for … in GC…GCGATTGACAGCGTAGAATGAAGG
Give your answer as a number; write no unit.

Below are worked cases with known answers.
{"columns": ["residue_string", "test_value"],
 "data": [
  ["CCAGACAGGTGAGAAGGTAACTCAACCTCGATTA", 0.698],
  ["TAGCCTATGTCATTGGGCCAGTATAGTACGCATC", 0.413],
  ["ATAGGTAGGTTAAGGGTCATTCAGGTTGGTTCGC", 3.74]
]}

get_value(item= ATCGAAAGGTCGACGTGGTGAGTATACACCGTTT , readout=PBM binding z-score) returns 4.24

For reference, reported PBM binding z-score for TGAATGAGGTTATTAGATCAGGGAACGTTGCAAA stands at 0.893

Noted for TCTATTAGGTGATTAGGGCAACCGAAACAGCGGA : its PBM binding z-score reads 1.02

For reference, reported PBM binding z-score for ACAGACAGGTGATGAAGGTAACTCACGCTATCAT stands at 0.546

====

Test system: VDR:RXRa (NR concentration 270 nM, RXRa partner concentration 90 nM)
assay_name: PBM binding z-score (relative to random genomic background probes); higher = stronger binding; sequences stand for … in GC…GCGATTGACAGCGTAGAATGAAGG
# PBM binding z-score annotations
// keep it numeric: no unit symbol after the value

The following sequences have reported results that may help.
{"columns": ["residue_string", "tested_system", "PBM binding z-score"],
 "data": [
  ["GCGACTGGGGCAAAGCAGGCTACCATAAGGTTGG", "VDR:RXRa (NR concentration 270 nM, RXRa partner concentration 90 nM)", -0.662],
  ["GGAGCGAGGGCAAAGTTGATAGCATCTGTCGACG", "VDR:RXRa (NR concentration 270 nM, RXRa partner concentration 90 nM)", 0.834],
  ["CCTACTGGGGCAGAAAGGTTACCATACCATCCGG", "VDR:RXRa (NR concentration 270 nM, RXRa partner concentration 90 nM)", 0.923],
  ["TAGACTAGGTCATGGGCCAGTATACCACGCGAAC", "VDR:RXRa (NR concentration 270 nM, RXRa partner concentration 90 nM)", 1.76],
  ["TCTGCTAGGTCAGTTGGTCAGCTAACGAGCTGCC", "VDR:RXRa (NR concentration 270 nM, RXRa partner concentration 90 nM)", 0.166]
]}

Lookup result for ATCGAAAGGTCGAGGTGAGCATAGAGAAAGGGAA ; measured PBM binding z-score: 2.36

====

Tested on: PPARa:RXRa (NR concentration 270 nM, RXRa partner concentration 90 nM)
assay_name: PBM binding z-score (relative to random genomic background probes); higher = stronger binding; sequences stand for … in GC…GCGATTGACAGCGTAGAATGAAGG
Listing of entries alongside the reported PBM binding z-score.

# example entries with known answers
{"columns": ["residue_string", "PBM binding z-score"],
 "data": [
  ["CGTCAAAGTTCAAGGAAACGTAACAGAAAGCAGC", 4.11],
  ["CCAGAGAGGTGAAAGGTAACTCAGTCTGGTACGC", 4.52],
  ["TATAGAGGGTCAAAGGCCAGAGTACGAATGTCGA", 5.82],
  ["CCTACTGGGCCACGAAAGGTCACTGATTCAGTGA", 4.32],
  ["CCAGACAGGTCAGAAGGTAACTCAGCCTCGATTA", 3.15]
]}

For reference, reported PBM binding z-score for GCGACTGGGGCAAAGCAGTTTACCATAAGGTTGG stands at 0.822

Lab note: measured PBM binding z-score of CAAACTAGGTCACAGAGGTCAAAGTACGTGCGTA was 6.64

Record ACAGACAGGTGATGAAGGTAAATCAGGCTATCAT . Reported PBM binding z-score: 0.252

The reported value for TGAATGAGGTTATAAGATCCGGGAACGTTGCAAA in terms of PBM binding z-score is 2.45

Measured PBM binding z-score, CCAGACAGGTGATAGGTAACTCAGTCTGGTACGC : 0.765

The reported PBM binding z-score of the sequence GCTAACAGGCCATTTGGGTCACTCAATGACGGGC was 1.73

Lookup result for CCAGACAGGTGAGGAGGTAACTCAGCCTCGATTA ; measured PBM binding z-score: 0.831

The sequence TCTTGTAGATCACAGGTTAAGAAAGCCGAAGCCT showed PBM binding z-score equal to 2.09

Value of measured PBM binding z-score for the entry GCTATTAGTTGAAAGGACAACCGAATGATTCTCG : 0.0455

The recorded PBM binding z-score for entry CAAATTAGGTCACCGGAAGGTCAAAGTCCGCATG equals 6.44

Input TTACCCAGGTGAAGGTCGTTGATCCCTCTGTAGA . Output PBM binding z-score: 1.77
